Target: ACE (angiotensin I converting enzyme) (Oryctolagus cuniculus, UniProt P12822)
Sequence (P12822 34-1310): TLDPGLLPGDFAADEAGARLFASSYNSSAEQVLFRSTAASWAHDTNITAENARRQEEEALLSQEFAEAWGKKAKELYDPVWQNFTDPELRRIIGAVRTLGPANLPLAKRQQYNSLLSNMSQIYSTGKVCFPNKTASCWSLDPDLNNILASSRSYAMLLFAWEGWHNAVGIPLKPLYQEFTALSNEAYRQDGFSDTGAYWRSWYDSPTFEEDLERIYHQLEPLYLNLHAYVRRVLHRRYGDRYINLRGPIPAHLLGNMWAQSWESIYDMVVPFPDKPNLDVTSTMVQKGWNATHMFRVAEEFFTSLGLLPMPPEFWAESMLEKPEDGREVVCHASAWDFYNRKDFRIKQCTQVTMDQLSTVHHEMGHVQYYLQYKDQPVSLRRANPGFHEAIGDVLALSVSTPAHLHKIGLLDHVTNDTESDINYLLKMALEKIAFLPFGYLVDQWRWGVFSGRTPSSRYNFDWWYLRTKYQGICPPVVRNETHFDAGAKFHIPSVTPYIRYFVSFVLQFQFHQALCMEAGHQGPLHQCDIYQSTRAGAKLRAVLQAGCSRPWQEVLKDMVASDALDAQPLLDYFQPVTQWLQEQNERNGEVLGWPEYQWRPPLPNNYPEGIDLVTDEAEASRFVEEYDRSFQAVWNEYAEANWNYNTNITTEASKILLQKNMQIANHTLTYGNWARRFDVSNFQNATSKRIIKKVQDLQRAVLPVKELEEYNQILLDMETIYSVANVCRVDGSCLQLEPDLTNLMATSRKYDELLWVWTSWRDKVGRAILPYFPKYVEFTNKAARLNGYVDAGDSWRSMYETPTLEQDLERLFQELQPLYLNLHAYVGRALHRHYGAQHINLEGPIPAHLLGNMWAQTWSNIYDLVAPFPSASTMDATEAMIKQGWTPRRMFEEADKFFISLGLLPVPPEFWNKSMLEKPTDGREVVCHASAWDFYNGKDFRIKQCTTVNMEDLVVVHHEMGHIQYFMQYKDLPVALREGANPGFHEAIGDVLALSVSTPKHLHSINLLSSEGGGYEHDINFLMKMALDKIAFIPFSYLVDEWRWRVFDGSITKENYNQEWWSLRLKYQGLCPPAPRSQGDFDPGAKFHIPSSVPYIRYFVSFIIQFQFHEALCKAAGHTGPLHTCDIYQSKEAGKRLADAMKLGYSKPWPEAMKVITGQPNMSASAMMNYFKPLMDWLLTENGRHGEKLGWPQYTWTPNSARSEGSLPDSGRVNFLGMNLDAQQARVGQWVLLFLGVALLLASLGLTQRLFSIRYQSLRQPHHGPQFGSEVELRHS
Assay: Inhibition of angiotensin I converting enzyme (HHL substrate, modified Cushman method)
Assay type: biochemical
Settings: Concentration 10 μM, 37°C, one hour, read-out: Inhibitory Activity on ACE (%)
Mark label 1 for reported inhibition at 10 µM of 90% or greater; mark label 0 for anything smaller.

CC(=O)SCC(C)C(=O)N(CC(=O)O)C1CCOc2ccc(Cl)cc21 (stereo not shown): label 0
C[C@H](CSC(=O)c1ccccc1)C(=O)N(CC(=O)O)C1Cc2ccccc2C1: label 1
COc1cc2c(cc1OC)C(N(CC(=O)O)C(=O)C(C)CS)CC2 (stereo not shown): label 1
CC(=O)SCC(C)C(=O)N(CC(=O)O)C1CCc2ccccc2C1 (stereo not shown): label 1
COc1cc2c(cc1OC)C(N(CC(=O)O)C(=O)C(CSC(C)=O)CSC(C)=O)CC2 (stereo not shown): label 0

Values compiled from patent EP0035868A1.
